Target: human dopamine D2L receptor (Homo sapiens, UniProt P14416)
Sequence (P14416 whole entry): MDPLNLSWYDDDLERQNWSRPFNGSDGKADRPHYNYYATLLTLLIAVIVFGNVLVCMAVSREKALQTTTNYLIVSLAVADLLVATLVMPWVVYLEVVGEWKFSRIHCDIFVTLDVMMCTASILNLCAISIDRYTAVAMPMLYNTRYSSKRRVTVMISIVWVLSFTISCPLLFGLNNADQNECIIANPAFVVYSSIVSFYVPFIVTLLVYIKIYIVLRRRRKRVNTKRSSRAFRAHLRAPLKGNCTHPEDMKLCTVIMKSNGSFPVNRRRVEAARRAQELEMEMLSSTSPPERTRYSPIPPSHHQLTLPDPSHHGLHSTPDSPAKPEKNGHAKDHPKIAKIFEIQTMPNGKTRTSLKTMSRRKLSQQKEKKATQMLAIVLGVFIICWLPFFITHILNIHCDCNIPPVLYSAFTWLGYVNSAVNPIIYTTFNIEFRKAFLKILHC
Experiment: Dopamine D2L radioligand binding ([3H]Spiperone)
Conditions: percent inhibition of specific binding; compound at 1 μM; read-out: Inhibition of ligand binding, Dopamine D2L
I would appreciate it if you labelled entries True when inhibition at 1 µM is 90% or higher, otherwise False.

Worked examples, 7 compounds total:
C/C(=C/n1c2c(c3cc(Cl)c(Cl)cc31)CN(C)CC2)c1ccncc1 | False
C/C(=C/n1c2c(c3cc(Cl)ccc31)CN(C)CC2)c1ccccc1F | False
C/C(=C\n1c2c(c3cc(Cl)ccc31)CN(C)CC2)c1ccc(F)cc1 | True
Cc1ccc2c(c1)c1c(n2CC(C)(O)c2ccncc2)CC(C)N(C)C1 (stereo not drawn) | False
CN1CCc2c(c3cc(F)ccc3n2CC(C)(O)c2ccncc2)C1 (stereo not drawn) | False
C/C(=C\n1c2c(c3cc(C)ccc31)CN(C(C)C)CC2)c1ccncc1 | False
C/C(=C\n1c2c(c3ccc(Cl)cc31)CN(C)CC2)c1ccc(F)cc1 | True

Kindly review the next compound as well.
Is reported inhibition at 1 µM greater than or equal to 90% here: C/C(=C\n1c2c(c3cccc(F)c31)CN(C)CC2)c1ccc(C)nc1
False

* * *

This section presents molecules with their documented inhibition at 1 µM values.
Target: human dopamine D2L receptor (Homo sapiens, UniProt P14416)
Test: Dopamine D2L radioligand binding ([3H]Spiperone)
Settings: compound at 1 μM; […] [3H]Spiperone; read-out: Inhibition of ligand binding, Dopamine D2L (percent inhibition of specific binding)
Return type: number; implicit unit %.

In the examples that follow, each entry is paired with its recorded inhibition at 1 µM.
C=C(Cn1c2c(c3cccc(F)c31)CN(C)CC2)c1ccncc1 | 53
COc1ccc(/C(C)=C/n2c3c(c4cc(Cl)ccc42)CN(C)CC3)cn1 | 80
C/C(=C/n1c2c(c3cc(Cl)ccc31)CN(C)CC2)c1ccc(F)cc1 | 80
CN1CCc2c(c3cc(Cl)ccc3n2CC(O)(c2ccccc2)c2ccccc2)C1 | 54
CNC(=O)c1ccc(C#Cn2c3c(c4cc(C)ccc42)CN(C)CC3)cc1F | 19
C/C(=C\n1c2c(c3cc(C)ccc31)CN(C)CC2)c1cc(F)c(O)c(F)c1 | 71

Now take the following molecule into account.
Quick check: inhibition at 1 µM on human dopamine D2L receptor (Homo sapiens, UniProt P14416), item C/C=C(/Cn1c2c(c3cc(C)ccc31)CN(C)CC2)c1ccncc1 ?
51
